Item-by-item account of IC50
Test system: SMMC-7721
assay-overview: Antiproliferative activity against human SMMC7721 cells after 72 hrs by MTT assay
Assay type: functional, cell-based
protocol-conditions: SMMC-7721, 72 h
Express the result in µM but write the number alone.

Reference set, count: 5
# molecule, IC50 (µM)
measured = [
    ("C=C1C(=O)[C@]23[C@H](O)[C@H]1C[C@H](O)[C@H]2[C@]12CCCC(C)(C)[C@H]1C[C@H]3O[C@@H]2OCCCn1cc(CN2C(=O)S/C(=C/CCCCC)C2=O)nn1", 5.3),
    ("C=C1C(=O)[C@]23[C@H](O)[C@H]1C[C@H](O)[C@H]2[C@]12CCCC(C)(C)[C@H]1C[C@H]3O[C@H]2O", 14.6),
    ("C=C1C(=O)[C@]23[C@H](O)[C@H]1C[C@H](O)[C@H]2[C@]12CCCC(C)(C)[C@H]1C[C@H]3O[C@@H]2OCCCn1cc(CN2C(=O)S/C(=C/CC)C2=O)nn1", 3.4),
    ("C=C1C(=O)[C@]23[C@H](O)[C@H]1C[C@H](O)[C@H]2[C@]12CCCC(C)(C)[C@H]1C[C@H]3OC2OCCCN=[N+]=[N-] (single isomer, unassigned)", 12),
    ("C=C1C(=O)[C@]23[C@H](O)[C@H]1CC[C@H]2[C@@]12CO[C@]3(O)[C@@H](O)[C@@H]1C(C)(C)CC[C@@H]2O [ORIDONIN]", 30.1),
]

// fetch SMMC-7721 IC50 for C=C1C(=O)[C@]23[C@H](O)[C@H]1C[C@H](O)[C@H]2[C@]12CCCC(C)(C)[C@H]1C[C@H]3O[C@@H]2OCCCn1cc(CN2C(=O)SC(=C(C)C)C2=O)nn1
5.7

Please tell me: IC50 of C=C1C(=O)[C@]23[C@H](O)[C@H]1C[C@H](O)[C@H]2[C@]12CCCC(C)(C)[C@H]1C[C@H]3O[C@@H]2OCCCn1cc(CSc2nc3ccccc3s2)nn1 , system SMMC-7721?
1.8

Query the reported IC50 for SMMC-7721; item: C=C1C(=O)[C@]23[C@H](O)[C@H]1C[C@H](O)[C@H]2[C@]12CCCC(C)(C)[C@H]1C[C@H]3O[C@@H]2OCCCn1cc(CN2C(=O)S/C(=C/C)C2=O)nn1
0.2

Find IC50 (SMMC-7721) for the entry C=C1C(=O)[C@]23[C@H](O)[C@H]1C[C@H](O)[C@H]2[C@]12CCCC(C)(C)[C@H]1C[C@H]3O[C@@H]2OCCCn1cc(CSC2=NCCS2)nn1
3.5
